For each record, write down the corresponding EC50.
# System: mHTT protein
# Procedure Text: mHTT protein assay (2B7-MW1, Mesoscale Discovery)
# Type: cell-based, human
# Experimental Context: GM04724 (CAG 70/20) Huntington's disease patient lymphoblast cells, 48 hours, 2B7-MW1 MSD; read-out: HTT Potency - Protein EC50 mHTT (average)

stdin: Quick one: EC50 of Oc1cc(-c2ccc3nncn3c2)ccc1-c1ccc(O[C@H]2C[C@@H]3CCC[C@@H](N3)[C@H]2F)nn1 (single isomer, unassigned) ?
stdout: 101 to 500 nM

stdin: Can you share its EC50? I mean this compound: Cc1cncc(-c2ccc(-c3ccc(O[C@H]4C[C@@H]5CCC[C@@H](N5)[C@H]4F)nn3)c(O)c2)c1 (single isomer, unassigned)
stdout: 501 to 10000 nM

stdin: Endpoint output: EC50 of O=c1cc(-c2ccc(-c3ccc(O[C@@H]4C[C@H]5CCC[C@H](N5)[C@@H]4F)nn3)c(O)c2)cc[nH]1 (single isomer, unassigned) . Value?
stdout: 101 to 500 nM

stdin: Suppose we examine the compound Cn1ccc2cc(-c3ccc(O[C@@H]4C[C@H]5CCC[C@H](N5)[C@@H]4F)nn3)c(O)cc2c1=O (single isomer, unassigned) ; what EC50 value has been reported?
stdout: 16 to 50 nM

stdin: Query (compound): Oc1cc(-c2cn[nH]c2)ccc1-c1ccc(O[C@@H]2C[C@H]3C[C@H](F)C[C@@H](C2)N3)nn1 ; field requested: EC50
stdout: 0.01 to 15 nM

stdin: Name the recorded EC50 for Cn1cc(-c2ccc(-c3ccc(O[C@H]4C[C@H]5CCC[C@H](N5)[C@@H]4F)nn3)c(O)c2)cn1 (single isomer, unassigned) .
stdout: 501 to 10000 nM

* * *

Provide the reported pEC50 of each item.
# Test system: mHTT protein
# Procedure Text: mHTT protein assay (2B7-MW1, Mesoscale Discovery)
# Format: cell-based, human
# Experimental Context: GM04724 (CAG 70/20) Huntington's disease patient lymphoblast cells, 48 hours, 2B7-MW1 MSD; read-out: HTT Potency - Protein EC50 mHTT (average)
pEC50: −log10 of the molar value.

stdin: I have this molecule here, Cn1ccc2cc(-c3ccc(O[C@H]4C[C@@H]5CC[C@@H](N5)[C@H]4F)nn3)c(O)cc2c1=O (single isomer, unassigned) , and I need its recorded pEC50.
stdout: 7.30 to 7.80

stdin: Which measured pEC50 value corresponds to Cn1ccc(=O)c2cc(-c3ccc(O[C@H]4C[C@]5(C)CCC[C@@](C)(N5)[C@H]4F)nn3)c(O)cc21 (single isomer, unassigned) ?
stdout: 5.00 to 6.30

stdin: Given the entry CNC(=O)c1ccc2cc(-c3ccc(O[C@H]4C[C@@H]5CCC[C@@H](N5)[C@H]4F)nn3)c(O)cc2n1 (single isomer, unassigned) , report its measured pEC50.
stdout: 7.82 to 11.00

* * *

# Test system: mHTT protein
# Procedure Text: mHTT protein assay (2B7-MW1, Mesoscale Discovery)
# Assay type: cell-based, human
# Experimental Context: GM04724 (CAG 70/20) Huntington's disease patient lymphoblast cells, 48 hours, 2B7-MW1 MSD; read-out: HTT Potency - Protein EC50 mHTT (average)
pEC50: −log10 of the molar value.
Assay Readout: pEC50

stdin: What does the data say about its pEC50? Entry: Cc1ncc(-c2ccc(-c3ccc(O[C@H]4C[C@@H]5CCC[C@@H](N5)[C@H]4F)nn3)c(O)c2)s1 (single isomer, unassigned)
stdout: 7.30 to 7.80

stdin: Returns the measured pEC50 for the input compound. Input: Cn1cc(-c2ccc(-c3ccc(O[C@@H]4C[C@H]5CCC[C@H](N5)[C@@H]4F)nn3)c(O)c2F)cn1 (single isomer, unassigned)
stdout: 7.30 to 7.80

stdin: I would be grateful if you could share the reported pEC50 for Cc1cc(-c2ccc(-c3ccc(O[C@H]4C[C@@H]5CCC[C@@H](N5)[C@H]4F)nn3)c(O)c2)cnn1 (single isomer, unassigned) .
stdout: 6.30 to 7.00

* * *

# Tested on: Huntingtin (HTT) transcripts
# Procedure Text: Quantitative splicing assay (HTT), qPCR
# Assay type: cell-based
# Experimental Context: Homo sapiens; GM04724 (CAG 70/20) Huntington's disease patient lymphoblasts, 24 h, qPCR HTTex49_50; read-out: HTT Potency - Splicing: E49-50 EC50 (average)
pEC50: −log10 of the molar value.
Assay Readout: pEC50

stdin: Bench note: what pEC50 did Cn1cc(-c2cc(O)c(-c3ccc(O[C@@H]4C[C@H]5CC[C@H](N5)[C@@H]4F)nn3)cc2F)cn1 (single isomer, unassigned) show?
stdout: 7.30 to 7.80

stdin: Can you look up the measured pEC50 of Oc1cc(-c2cn[nH]c2)ccc1-c1ccc(O[C@@H]2C[C@H]3COC[C@H](N3)[C@@H]2F)nn1 (single isomer, unassigned) for me?
stdout: 6.30 to 7.00

stdin: Please report the recorded pEC50 for Cn1cc(-c2ccc(-c3ccc(O[C@H]4C[C@]5(C)CCC[C@@](C)(N5)[C@H]4F)nn3)c(O)c2)cn1 (single isomer, unassigned) .
stdout: 7.30 to 7.80

stdin: // query pEC50 value for entry Cn1cc(-c2ccc(-c3ccc(O[C@H]4C[C@@H]5CC[C@@H](N5)[C@H]4F)nn3)c(O)c2)cn1 (single isomer, unassigned)
stdout: 7.30 to 7.80

stdin: Recorded pEC50 for Oc1cc(-c2nnco2)ccc1-c1ccc(O[C@H]2C[C@@H]3CCC[C@@H](N3)[C@H]2F)nn1 (single isomer, unassigned) , please?
stdout: 6.30 to 7.00

stdin: What value of measured pEC50 is listed for Cn1ccc2cc(-c3ccc(O[C@H]4C[C@]5(C)CC[C@@](C)(N5)[C@H]4F)nn3)c(O)cc2c1=O (single isomer, unassigned) ?
stdout: 6.30 to 7.00

stdin: // query pEC50 value for entry Oc1cc(-c2cn[nH]c2)ccc1-c1ccc(O[C@@H]2C[C@H]3CC[C@H](N3)[C@@H]2F)nn1 (single isomer, unassigned)
stdout: 7.82 to 11.00

stdin: # query: pEC50 of entry Cn1cc(-c2cc(O)c(-c3ccc(O[C@@H]4C[C@H]5CCC[C@H](N5)[C@@H]4F)nn3)cn2)cn1 (single isomer, unassigned)
stdout: 5.00 to 6.30

stdin: Please look up its pEC50: Cn1cc(-c2cc(O)c(-c3ccc(O[C@H]4C[C@@H]5CC[C@@H](N5)[C@H]4F)nn3)cc2F)cn1 (single isomer, unassigned)
stdout: 7.30 to 7.80

stdin: What value of pEC50 has been reported for the following compound? Cc1ncc(-c2ccc(-c3ccc(O[C@H]4C[C@@H]5CCC[C@@H](N5)[C@H]4F)nn3)c(O)c2)s1 (single isomer, unassigned)
stdout: 7.30 to 7.80

stdin: Can you look up the measured pEC50 of Oc1cc(-c2nncs2)ccc1-c1ccc(O[C@H]2C[C@@H]3CCC[C@@H](N3)[C@H]2F)nn1 (single isomer, unassigned) for me?
stdout: 6.30 to 7.00

stdin: Quick one: pEC50 for Cn1cc(-c2ccc(-c3ccc(O[C@@H]4C[C@H]5CCC[C@H](N5)[C@H]4F)nn3)c(O)c2)cn1 (single isomer, unassigned) ?
stdout: 7.00 to 7.29

stdin: May I ask what pEC50 has been recorded for Oc1cc(-c2cnccn2)ccc1-c1ccc(O[C@H]2C[C@@H]3CCC[C@@H](N3)[C@H]2F)nn1 (single isomer, unassigned) ?
stdout: 7.00 to 7.29

stdin: Quick one: pEC50 of Cc1ncc(-c2ccc(-c3ccc(O[C@@H]4C[C@H]5CCC[C@H](N5)[C@@H]4F)nn3)c(O)c2)o1 (single isomer, unassigned) ?
stdout: 7.30 to 7.80

stdin: For Oc1cc(-c2cn[nH]c2)ccc1-c1ccc(O[C@H]2C[C@@H]3CCC[C@@H](N3)[C@@H]2F)nn1 (single isomer, unassigned) , what is its reported pEC50?
stdout: 7.82 to 11.00

stdin: What value of measured pEC50 is listed for C[C@@]12CC[C@@](C)(N1)[C@@H](F)[C@@H](Oc1ccc(-c3ccc(-c4cn[nH]c4)cc3O)nn1)C2 (single isomer, unassigned) ?
stdout: 7.82 to 11.00

stdin: Field request: pEC50 | item: Oc1cc(-c2cn[nH]c2)ccc1-c1ccc(O[C@H]2C[C@@H]3CC(F)(F)[C@H](C2)N3)nn1 (single isomer, unassigned)
stdout: 5.00 to 6.30

stdin: Report pEC50 for Cn1cc(-c2cc(O)c(-c3ccc(O[C@@H]4C[C@H]5CCC[C@H](N5)[C@@H]4F)nn3)cc2Cl)cn1 (single isomer, unassigned) please.
stdout: 7.30 to 7.80

stdin: Which pEC50 is reported for this compound? Cn1ccc2cc(-c3ccc(O[C@@H]4C[C@@]5(C)CCC[C@](C)(N5)[C@@H]4F)nn3)c(O)cc2c1=O (single isomer, unassigned)
stdout: 7.30 to 7.80

stdin: Please report the recorded pEC50 for Cn1cc(-c2ccc(-c3ccc(O[C@H]4C[C@@H]5CCC[C@@H](N5)[C@H]4F)nn3)c(O)c2)cn1 (single isomer, unassigned) .
stdout: 7.30 to 7.80

stdin: Please give the measured pEC50 for this compound: C[C@]12CCC[C@](C)(N1)[C@H](F)[C@H](Oc1ccc(-c3ccc(-c4cn[nH]c4)cc3O)nn1)C2 (single isomer, unassigned)
stdout: 7.82 to 11.00

stdin: # lookup: pEC50 of Cn1ccc(-c2ccc(-c3ccc(O[C@@H]4C[C@@]5(C)CCC[C@](C)(N5)[C@@H]4F)nn3)c(O)c2)cc1=O (single isomer, unassigned)
stdout: 7.30 to 7.80

stdin: I would be grateful if you could share the reported pEC50 for Cn1ccc2cc(O)c(-c3ccc(O[C@H]4C[C@@H]5CC[C@@H](N5)[C@H]4F)nn3)cc2c1=O (single isomer, unassigned) .
stdout: 6.30 to 7.00
